These data points were gathered from PubChem BioAssay.

Some compounds, each annotated with its measured composite z-score.
System under test: Calmodulin-1 (Homo sapiens) (UniProt P0DP23)
Experiment summary: CALM1 binders on microarrays, EGTA buffer, profiling panel, biochemical, small-molecule microarray, Cy5-labelled CALM1 (AID 1111);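 further: labelled calmodulin applied in Tris saline Tween buffer holding calcium plus EGTA and DTT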
Condition info: Cy5-CALM1 binding fluorescence, higher = more signal

Compound | composite z-score
CC(C)N1C(=O)[C@@]2(c3ccc([N+](=O)[O-])cc3)CC(=O)N(C3CCCCC3)[C@@H]2c2ccc(CO)cc21 | -0.561
[N-]=[N+]=NCc1ccccc1[C@H]1OC(c2ccc(OCCCO)cc2)=N[C@@]1(CCS(=O)(=O)c1ccccc1)C(N)=O | 0.145
C=CCN1Cc2ccccc2C[C@@]2(N=C(c3ccc(OCCCO)cc3)O[C@H]2c2ccccc2)C1=O | 2.97
CN1C(=O)C2C=CC(C(O)Cc3ccccc3)N(N(c3ccccc3)c3ccccc3)C2C1=O (stereo not drawn) | -0.0282
Cc1ccc(S[C@]2(C(=O)NC3CC3)CC(=O)N(Cc3ccccc3Cl)[C@@H]2c2ccc(CO)cc2I)cc1 | 0.156
CC(=O)n1cc(C(O)C2C=CC3C(=O)N(c4ccccc4)C(=O)C3N2Nc2ccccc2)c2ccccc21 (stereo not drawn) | 0.735
O=C1O[C@@H](c2ccccc2)[C@@H](c2ccccc2)N2[C@@H](c3ccccc3OCCO)[C@]3(C(=O)Nc4ccccc43)[C@@H](C(=O)NC[C@H](O)c3ccccc3)[C@H]12 | 1.08
O=c1cccc(-c2ccc(C(F)(F)F)cc2)o1 | -0.271
